Origin of the recorded values: patent US8093393B2

# Test system: isolated rat liver mitochondria
# TEST NAME: Mitochondrial permeabilization (ΔΨ, large-amplitude swelling)
# CONDITION CONTEXT: read-out: IC50 of mitochondrial swelling; swelling 30 min after ceramide treatment
PROPERTY: IC50

Which value of IC50 has been reported for CCCCCCCCCCCCC/C=C/[C@@H](O)[C@H](CO)NC(=O)CCCCC [C6-Cer, D-erythro-C6-ceramide, reference compound] in the records?
> 60 µM

* * *

# Test system: MCF7 breast carcinoma cells
# TEST NAME: Cell proliferation and viability, Trypan blue exclusion assay
# Format: cell-based
# CONDITION CONTEXT: 48 h treatment; read-out: IC50, inhibitory effect on MCF7 cell growth
Please respond with reported pIC50 for every item in the list.
One number for each entry, as −log10 of the molar value.

CCCCCCCCCCCCCCC[C@@H](O)[C@H](CO)NC(=O)CCCCCCCCCCCCCCC[n+]1ccccc1.[Br-] | 5.60
CCCCCCCCCCCCCCC[C@@H](O)[C@H](CO)NC(=O)C[n+]1ccccc1.[Br-] | 4.90
CCCCCCCCCCCCC/C=C/[C@@H](O)[C@H](CO)NC(=O)CCc1ccc[n+](CCCC)c1 | 5.07

Hey, can you go through the list below and give me pIC50 for every item?
1. CCCCCCCCCCCCC/C=C/[C@@H](O)[C@H](CO)NC(=O)CCCCCCCCCCC[n+]1ccccc1.[Br-]
2. CCCCCCCCCCCCC/C=C/[C@@H](O)[C@H](CO)NC(=O)CCCCCCCCCCCCCCC[n+]1ccccc1.[Br-]
3. CCCCCCCCCCCCC/C=C/[C@@H](O)[C@H](CO)NC(=O)CCCCC [C6-Cer, D-erythro-C6-ceramide, reference compound]
4. CCCCCCCCCCCCC/C=C/[C@@H](O)[C@H](CO)NC(=O)C[n+]1ccccc1.[Br-]

[6.22, 5.74, 4.82, 5.10]
